The measurements presented in this section are drawn from PubChem BioAssay (NCI).

Tested on: TK-10 renal
method-description: NCI tumour cell line growth inhibition, 48 h
quantity-kind: TGI

Request: If you can, please state the reported TGI value of O=S(=O)(/C=C/CS(=O)(=O)c1ccccc1)c1ccccc1 .
Result: > 100 µM

Request: What about this molecule? CC1=C(CCC(C)NCc2ccc(OCCCN3CCCCC3)cc2)C(C)(C)CCC1 (stereo not given)
Result: 3.19 µM

Request: What about this molecule? Cc1cnc(CNC(=O)c2c(=O)c3ccc(N4CCCN(C)CC4)nc3n3c2sc2ccccc23)cn1
Result: 23 µM

Request: What about this molecule? Cc1[nH]c(=O)nc(Nc2ccc(Cl)cc2)c1C(=O)N1CCN(CCO)CC1
Result: > 100 µM

----------
Test system: SK-MEL-2 melanoma
method-description: NCI tumour cell line growth inhibition, 48 h
quantity-kind: TGI (µM)
The figure you give is taken to be in µM; do not add the unit.

Worked examples, 4 compounds total:
CCC[CH2][Sn]1([CH2]CCC)[O]C2C(CO)OC(n3ccc(N)nc3=O)C2[O]1 (stereo not drawn); 2.29
O=C1c2ccc3c4c(ccc(c24)C(=O)N1CCCNCc1ccccc1Cl)C(=O)N(CCCNCc1ccccc1Cl)C3=O; 1.28
ON=C(CC(O)(C(F)(F)Cl)C(F)(F)Cl)CC(O)(C(F)(F)Cl)C(F)(F)Cl; 7.84
C=C1C[C@H](O)[C@H](Br)C(C)(C)C12CCC(C)(Cl)C(Br)C2 (stereo partly drawn); 6.55

Request: If you can, please state the reported TGI value of CC1=C(CCC(C)NCc2ccc(OCCCN3CCCCC3)cc2)C(C)(C)CCC1 (stereo not drawn) .
Result: 3.08

Request: What about this compound? O=C(NNC(=O)c1csc(NC(=S)NC2CCCCC2)n1)c1ccccc1
Result: 45

Request: What about this compound? COc1ccc(N(/C=C/C(=O)C(F)(F)F)CC(=O)c2ccc(F)cc2)cc1
Result: 67.2

----------
System: A498 renal
method-description: NCI tumour cell line growth inhibition, 48 h
quantity-kind: TGI (µM)
The figure you give is taken to be in µM; do not add the unit.

Request: If you can, please state the reported TGI value of CN(C)Cc1cc(N=Nc2ccc(Cl)cc2)cc(CN(C)C)c1O .
Result: 29.8

Request: What about this compound? C[CH2][Sn]([CH2]C)([O]C(=O)c1ccccc1F)[O][Sn]([CH2]C)([CH2]C)[O]C(=O)c1ccccc1F
Result: 37.4

Request: What about this compound? CCN1C(=O)N(CC)C2C1NN=c1s/c(=C\c3ccccn3)c(=O)n12 (stereo not given)
Result: 2.74

----------
Tested on: EKVX NSCLC
method-description: NCI tumour cell line growth inhibition, 48 h
Listing: TGI of selected compounds

Worked examples, 3 compounds total:
COc1ccc(-c2oc3c(OC)c(OC)cc(O)c3c(=O)c2OC)cc1; > 100 µM
O=C(O)C1CCCCN1c1ccccc1[N+](=O)[O-] (stereo not given); > 100 µM
Nc1ncnc2c1c(-c1ccc(Oc3ccccc3)cc1)nn2C[C@@H]1SSC[C@H]1O; 10.5 µM

Request: If you can, please state the reported TGI value of BrCC[N+]12CC[N+](CCBr)(CC1)C2 .
Result: > 100 µM

Request: What about this compound? CN(C)c1ccc(C=C2C(=O)NC(=S)NC2=O)c2ccccc12
Result: > 100 µM

----------
System: HOP-62 NSCLC
method-description: NCI tumour cell line growth inhibition, 48 h
Listing: TGI of selected compounds
The figure you give is taken to be in µM; do not add the unit.

Worked examples, 3 compounds total:
CNC(=O)OCc1c2ccncc2c(C)c2c1[nH]c1ccc(OC)cc12; 1.07
C=C1CC[C@@H]2[C@](C)(COC(C)=O)[C@H](OC(C)=O)CC[C@@]2(C)[C@@H]1CC(Nc1ccc(S(=O)(=O)Nc2ccc(Cl)nn2)cc1)C1=CCOC1=O (stereo not given in full); 2.99
COc1cc(OC)c(C(=O)/C=C/c2cccc(C#N)c2)c(OC)c1; 4.55

Query compound follows.
Request: If you can, please state the reported TGI value of ON=C(CC(O)(C(F)(F)Cl)C(F)(F)Cl)CC(O)(C(F)(F)Cl)C(F)(F)Cl .
Result: 9.78

----------
Listing: TGI of selected molecules
Test system: PC-3 prostate
method-description: NCI tumour cell line growth inhibition, 48 h

Worked examples, 2 molecules total:
CN(C)c1ccc(C(=NO)c2ccc(N(C)C)cc2)cc1; > 100 µM
COc1ccc(C(=O)/C=C/c2cccc(Nc3ccnc4cc(Cl)ccc34)c2)cc1; > 100 µM

Request: If you can, please state the reported TGI value of COC(=O)CC1c2ccccc2N2C(=O)Cc3c([nH]c4ccccc34)C12 (stereo not drawn) .
Result: > 100 µM

----------
Test system: MDA-N
method-description: NCI tumour cell line growth inhibition, 48 h
Listing: TGI of selected compounds

Worked examples, 3 compounds total:
N#Cc1c(-c2ccccc2)c(CN2CCCCC2)c(=O)n2c1[nH]c1ccccc12; > 100 µM
Cn1cc(-c2csc(-c3cn(C)c4ccccc34)n2)c2ccccc21; > 100 µM
O=c1cc(-c2cccnc2)[nH]c2cc3c(cc12)OCO3; 5.71 µM

Query compound follows.
Request: If you can, please state the reported TGI value of CC1=C(C(=O)N[C@@H](CC(C)C)C(=O)O)N2C(=O)[C@@H](NC(=O)C(N)c3ccccc3)[C@H]2SC1 (some centres undefined) .
Result: > 100 µM

----------
System: HCT-15 colon
method-description: NCI tumour cell line growth inhibition, 48 h
Where a SMILES comes first, the peptide text is derived from it. [ ]: non-standard residue; d: D form.
Listing: TGI of selected molecules

Worked examples, 5 molecules total:
CC(C)N(C(C)C)S(=O)(=O)C[C@]12CC[C@H](CC13OCC(CS(=O)(=O)c1ccccc1)O3)C2(C)C (some centres not stated); > 100 µM
CC(C)C[C@H](NC(=O)[C@H](CC(C)C)NC(=O)[C@@H](Cc1c[nH]c2ccccc12)NC(=O)[C@H](Cc1ccccc1)NC(=O)[C@@H](Cc1c[nH]c2ccccc12)NC(=O)[C@H](CCC(N)=O)NC(=O)[C@H](CCC(N)=O)NC(=O)[C@H]1CCCN1C(=O)[C@@H](N)CCCCN)C(N)=O (H-K[dP]QQ[dW]F[dW]LL-NH2); > 100 µM
NS(=O)(=O)c1ccc(/C=C/c2ccc(O)cc2)cc1; > 100 µM
O=C1NOC(c2ccc(O)cc2)(c2ccc(O)cc2)c2ccccc21; > 100 µM
Nc1c(C(=O)c2cccc(C#CCO)c2)cnn1-c1ccc(F)cc1; > 25 µM

Request: State its TGI on HCT-15 colon: COc1ccc(CC(=O)c2ccc(O)cc2O)cc1
Result: > 100 µM

----------
Listing: TGI of selected molecules
System: SF-539 CNS
method-description: NCI tumour cell line growth inhibition, 48 h

Worked examples, 8 molecules total:
CCn1cnnc1-c1nsc2ccccc12; > 100 µM
COC(=O)C1=C(C)NC(C)=C(C(=O)OCC(C)C)C1c1ccccc1[N+](=O)[O-] (stereo unspecified); 16.8 µM
COc1ccc(/C=C(\C(=O)NCc2cccnc2)S(=O)(=O)c2ccccc2)cc1OC; 6.74 µM
COc1cc([N+](=O)[O-])c(OC)cc1-c1nc2sccn2c1/C=N/N=C(N)N; 46.5 µM
BrCC[N+]12CC[N+](CCBr)(CC1)C2; > 100 µM
Cc1ccc(-c2csc(NC(=O)N3CCN(c4cc5c(cc4F)c(=O)c(C(=O)O)cn5C4CC4)CC3)n2)cc1; > 100 µM
CCN(CC)c1oc(N(CC)CC)c(C(=O)Nc2ccccn2)c(=O)c1C(C)=O; > 100 µM
CCO/C=N/C1=C(C#N)SC2=N/C(=C\c3ccccc3)C(=O)N21; > 100 µM

Request: If you can, please state the reported TGI value of CCOC(=O)/C(O)=C(/C(=O)OC)c1ccc(Cl)cc1 .
Result: > 100 µM

Request: What about this molecule? O=C1/C(=N\O)S(=O)(=O)c2ccccc21
Result: > 100 µM

----------
System: TK-10 renal
method-description: NCI tumour cell line growth inhibition, 48 h
quantity-kind: TGI

COc1ccc(COC2CC(OC)OC(C)C2OC(=O)c2ccccc2)cc1 (stereo not drawn); > 100 µM

Request: If you can, please state the reported TGI value of COc1cc([N+](=O)[O-])c(OC)cc1-c1nc2sccn2c1/C=N/N=C(N)N .
Result: 50.6 µM

Request: What about this molecule? NS(=O)(=O)c1ccc(/C=C/c2ccc(O)cc2)cc1
Result: > 100 µM

Request: What about this molecule? O=C(N/N=C(/COc1ccccc1)N=Cc1cccnc1)c1ccncc1
Result: > 100 µM

Request: What about this molecule? COC(=N)c1c(N)[n+]([O-])c2ccc(F)cc2[n+]1[O-]
Result: > 100 µM
